# Test system: BHK-21 cells
# test summary: Anti-fibrosis activity test: inhibition of BHK-21 cell proliferation (CCK-8)
# Type: cell-based
# reported conditions: Mesocricetus auratus, BHK-21, 48 h, CCK-8, 48 hours after administration
Recorded IC50 for the following compounds

Worked examples, 3 compounds total:
Input: Reported IC50, compound CC(C)n1c2c(c(=O)c3cc(F)c(N4CCNCC4)cc31)C(=O)n1cccc1-2 [Compound 331a] : ____
Output: 0.05 to 5 mM

Input: Reported IC50, compound O=C1c2c([nH]c3cc(OC(F)(F)F)ccc3c2=O)-c2cccn21 [Compound 548a] : ____
Output: 0.05 to 5 mM

Input: Reported IC50, compound CC(C)CCn1c2c(c(=O)c3cc(F)c(N4CCNCC4)cc31)C(=O)n1cccc1-2 [Compound 347a] : ____
Output: 0.05 to 5 mM

Next:
Input: Reported IC50, compound O=C1c2c(n(Cc3ccc(I)cc3)c3ccccc3c2=O)-c2cccn21 [Compound 575a] : ____
Output: < 0.05 mM
